tested on: LOX IMVI melanoma; assay: NCI-60 one-dose screen, 48 h (100 = growth as untreated, 0 = no growth, -100 = all killed); conditions: 10 µM unless noted
About 83,000 compounds went through this panel and 20% of them were active in at least one assay; those are over-represented in the sample as a whole.
growth below 90% gives NO; growth at or above it gives YES.

Tell me whether growth is at least 90% here: C=C1C(=O)O[C@H]2[C@H]1CC/C(COC(=O)NCc1cc[nH]c1)=C\CC[C@@]1(C)O[C@@H]21
NO

Tell me whether growth is at least 90% here: COc1ccc(C(=O)C2C(c3ccc(OC)cc3)CN(C)C23C(=O)Nc2ccccc23)cc1 (centres undefined)
YES

Tell me whether growth is at least 90% here: CN1C(=O)/C(=C/c2ccc(C(=O)Nc3ncc(Cc4ccc(Cl)cc4)s3)cc2)SC1=S
NO

Tell me whether growth is at least 90% here: NC(=O)c1c(NC(=O)c2ccccc2)sc2c1CCC(=O)C2
NO

Tell me whether growth is at least 90% here: CC(C)NC1CCC(Nc2ccnc3cc(Cl)ccc23)CC1 (centres undefined)
NO

Tell me whether growth is at least 90% here: Cc1cccc2c1NC(=O)C2(c1ccc(O)cc1)c1ccc(O)cc1
NO

Tell me whether growth is at least 90% here: COc1cc(OC)cc(C2=C3CC[C@@H]4[C@H](CC[C@]5(C)C(=O)CC[C@@H]45)C3=CC3C(O)c4cccnc4N4C(=O)COC234)c1 (some centres undefined)
YES

Tell me whether growth is at least 90% here: O=C1N[C@@H]2NC(=[N+]3CCOCC3)N[C@@H]2N1
YES

Tell me whether growth is at least 90% here: C=C1C(=O)O[C@H]2[C@H]1CC/C(COC(=O)CSCCSCC(=O)OC/C1=C/CC[C@@]3(C)O[C@H]3[C@H]3OC(=O)C(=C)[C@@H]3CC1)=C\CC[C@@]1(C)O[C@@H]21
NO

Tell me whether growth is at least 90% here: CCc1n(Cc2ccc3ccccc3c2)cc[n+]1Cc1ccc2ccccc2c1
NO

Tell me whether growth is at least 90% here: CCCC(O)Cn1ncc(C(=O)OCC)c1NC(=O)NCc1ccccc1F (centres undefined)
YES

Tell me whether growth is at least 90% here: C#CCn1cnc2c(Nc3cccc(NC(=O)C=C)c3)ncnc21
YES

Tell me whether growth is at least 90% here: C#Cc1cccc(Nc2ncnc3ccc(-c4cncc(NS(C)(=O)=O)c4)cc23)c1
NO

Tell me whether growth is at least 90% here: O=C(c1cc2ccccc2o1)c1nn(-c2ccccc2)/c(=N/N=Cc2cn(-c3ccccc3)nc2-c2cc3ccccc3oc2=O)s1
YES

Tell me whether growth is at least 90% here: O=C(CCCCC1CCSS1)Nc1ncnc2n[nH]c(-c3ccc(Oc4ccccc4)cc3)c12 (centres undefined)
NO

Tell me whether growth is at least 90% here: O=C(N/N=C/c1ccc(F)cc1)c1ccc(C(F)(F)F)nc1Nc1cccc(C(F)(F)F)c1
NO

Tell me whether growth is at least 90% here: O=C(CSc1nc(-c2ccccc2)[nH]c1S(=O)(=O)c1ccccc1)NC1CC1
NO

====

Record form. Attribute: growth. Fill in for each entry.
system: SK-MEL-2 melanoma; assay: NCI-60 one-dose screen, 48 h (100 = growth as untreated, 0 = no growth, -100 = all killed); settings: 10 µM unless noted
Compounds without any hit were thinned out: in the full panel of roughly 83,000, 20% have a hit. The source made the active and inactive calls. How the source made its calls: active means growth percent below 10; inactive means the rest.

Endpoint output: growth of C#CCOc1ccc2ncnc(Nc3cccc(NC(=O)C=C)c3)c2c1 . Value?
70.8% (inactive)

Endpoint output: growth of Cn1c(O)c(C=NCCN=Cc2c(O)n(C)c(=O)n(C)c2=O)c(=O)n(C)c1=O . Value?
120% (inactive)

Endpoint output: growth of O=C(CSc1nc2sc3c(c2c(=O)n1-c1ccccc1)CCCCC3)N/N=C/c1ccc(F)cc1 . Value?
91.9% (inactive)

Endpoint output: growth of CC1(C)CC[C@]2(C(=O)O)CC[C@]3(C)C(=CC[C@@H]4[C@@]5(C)C/C(=C/O)C(=O)C(C)(C)[C@@H]5CC[C@]43C)[C@@H]2C1 . Value?
104% (inactive)

Endpoint output: growth of COc1cc2c(c(OC)c1OC)C(=O)CC(c1cccc(NC(=O)c3ccc(Br)cc3)c1)O2 (centres undefined) . Value?
8.79% (active)

Endpoint output: growth of O=C(/C=C(/C=C/c1cccc2[nH]ccc12)OB(F)F)/C=C/c1cccc2[nH]ccc12 . Value?
-57.9% (active)

Endpoint output: growth of CC(=O)n1nc(C(=O)OC(C)C)c2cc(C)c(C)cc21 . Value?
106% (inactive)

Endpoint output: growth of c1ccc(CNc2c3ccccc3nc3ccccc23)cc1 . Value?
60.8% (inactive)

Endpoint output: growth of N#Cc1cccc(NC(=O)c2oc3ccccc3c2-c2cnn(-c3ccccc3)c2)c1 . Value?
88.1% [50 µM] (inactive)

Endpoint output: growth of O=C1C(Cl)=C(Oc2ccccc2)C(=O)c2ccccc21 . Value?
73.4% (inactive)

Endpoint output: growth of CCN(CC)CCNC(=O)c1cn2ncnc(Oc3ccc(NC(=O)Nc4ccc(Cl)c(C(F)(F)F)c4)c(F)c3)c2c1C . Value?
-36.9% (active)

Endpoint output: growth of OCc1cccc(-c2ccc3ncc(-c4nc(NC5CC5)ncc4F)n3c2)c1 . Value?
-55.4% (active)

Endpoint output: growth of CS(=O)(=O)Nc1cc(-c2ccc3ncnc(Nc4c(Cl)ccc5c4OCO5)c3c2)cnc1Cl . Value?
-65.7% (active)

Endpoint output: growth of COc1ccc(C(=O)Nc2ncc(Cc3ccc(F)cc3)s2)cc1 . Value?
30.7% (inactive)

Endpoint output: growth of C[C@]12CC[C@@H]3c4ccc(O)c([N+](=O)[O-])c4CC[C@H]3[C@@H]1CCC2=O . Value?
107% (inactive)

Endpoint output: growth of O=C(CCC(=O)N/N=C/c1ccccc1O)N/N=C/c1ccccc1O . Value?
69.7% (inactive)

Endpoint output: growth of O=C1NCCC12CCN(c1c(Cl)cncc1-c1ccc(O)cc1)CC2 . Value?
105% (inactive)

Endpoint output: growth of C=CCc1c2c(c(OC)c3ccoc13)C(=O)/C(=C/c1ccccc1OC)O2 . Value?
58.4% (inactive)

Endpoint output: growth of COc1ccc2[nH]cc(-c3nc(-c4c[nH]c5ccncc45)cs3)c2c1 . Value?
84.7% (inactive)

Endpoint output: growth of C=CC(=O)NCc1ccc(Nc2nccc(-c3ccc(N4CCCC4)c(C#N)c3)n2)cc1 . Value?
35.8% (inactive)

Endpoint output: growth of O=C(Nc1nn(-c2ccc(Cl)cc2Cl)nc1-c1ccccc1)c1ccccc1 . Value?
106% (inactive)

Endpoint output: growth of COc1ccc2c(c1)c(-c1noc(C(=O)c3cn(C)c4ccc(Br)cc34)n1)cn2C . Value?
93.9% (inactive)

Endpoint output: growth of CC1(C)CCC(S(=O)(=O)c2ccc3c(c2)/C(=N\O)c2cc(S(=O)(=O)N4CCC(O)(c5cccc(C(F)(F)F)c5)CC4)ccc2-3)CC1 . Value?
-90.2% (active)

Endpoint output: growth of N=C(N)c1ccc(-c2ccc(-c3cc(Cl)cc(Cl)c3)o2)o1 . Value?
-43.5% (active)

Endpoint output: growth of COc1cccc([C@H]2c3[nH]c4ccccc4c3C[C@H]3C(=O)N(CCCCCCC(=O)NO)CC(=O)N23)c1 . Value?
60.1% (inactive)

Endpoint output: growth of O=C(c1ccc(Cl)cc1)N1CCN(c2ccnc3cc(Cl)ccc23)CC1 . Value?
88.9% (inactive)

Endpoint output: growth of C#CCOc1cccc(Nc2ncnc3c(NC(=O)C=C)cccc23)c1 . Value?
8.09% (active)

Endpoint output: growth of C[C@]12C=CC(=O)C=C1CCC1C2[C@@H](O)C[C@@]2(C)C1CC[C@]2(O)C(=O)COC(=O)CCC(=O)O (some centres undefined) . Value?
117% (inactive)

Endpoint output: growth of CNC(=O)c1c(NC(=O)c2ccc(C(F)(F)F)cc2)sc2c1CCC(=O)C2 . Value?
-12.1% (active)

Endpoint output: growth of O=C(c1ccc(-c2ccccc2)cc1)c1ccc([N+](=O)[O-])cc1 . Value?
104% (inactive)

Endpoint output: growth of COc1ccc(-c2nc(SCC(C)C)nc(N/N=C\c3ccc(F)cc3)c2C#N)cc1 . Value?
104% (inactive)

Endpoint output: growth of O=C(c1ccc(-c2nc(CSc3nc4ccccc4s3)no2)cc1)N1CCSCC1 . Value?
45.7% (inactive)

Endpoint output: growth of COc1cccc(CNc2ncnc3c2ncn3C2OC(CO)C(O)C2O)c1O (centres undefined) . Value?
-6.73% (active)

Endpoint output: growth of Cc1ccc(/C=C2\CN(C(=O)OC(C)(C)C)C/C(=C\c3ccc(C)cc3)C2=O)cc1 . Value?
83.8% (inactive)

Endpoint output: growth of Cc1ccc(Sc2nnc(/N=C3\C(=O)Nc4ccccc43)s2)cc1 . Value?
105% (inactive)

Endpoint output: growth of CCCCCCCCCCCCCCCC(N)c1ccccc1 (centres undefined) . Value?
70.8% (inactive)

Endpoint output: growth of COc1ccc(-c2nc(/C=C3\SC(=NCc4ccccc4)NC3=O)c3ccccn23)cc1 . Value?
-31.6% (active)

Endpoint output: growth of COc1ccc(/C=N/C2=C(C#N)C(c3cccc(Cl)c3)c3c(ccc4ccccc34)O2)cc1 (centres undefined) . Value?
51.2% (inactive)

Endpoint output: growth of c1ccc(C2=NN[C@H](c3cn(-c4ccccc4)nc3-c3ccccc3)C2)cc1 . Value?
54.8% (inactive)
